# target or test system: proMMP9(20-445;ΔFnII) (SEQ ID NO:6) (Homo sapiens, UniProt P14780, DEL216-390)
# Construct: start methionine (N)
# Sequence (P14780 with tags, fused parts or gaps DEL216-390): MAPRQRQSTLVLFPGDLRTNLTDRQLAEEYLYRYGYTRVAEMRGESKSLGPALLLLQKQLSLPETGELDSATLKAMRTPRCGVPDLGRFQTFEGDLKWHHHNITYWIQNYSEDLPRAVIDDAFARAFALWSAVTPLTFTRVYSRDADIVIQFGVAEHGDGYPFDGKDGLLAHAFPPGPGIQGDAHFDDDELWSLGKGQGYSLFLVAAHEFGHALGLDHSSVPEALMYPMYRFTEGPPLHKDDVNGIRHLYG
# experiment notes: ThermoFluor binding assay with proMMP9(20-445;ΔFnII)
# experimental context: pH 7.0
result type: Kd (µM)
# value in µM; strip the unit string

Use these answered entries as a reference point.
Cc1nc(C(=O)NC2CCN(C)CC2)sc1-c1csc(Nc2cc(C(N)=O)ccc2OC(C)C)n1 ... 1.5
CCOc1ccc(C(N)=O)cc1Nc1nc(-c2sc(C(=O)N(C)CCN(C)C)nc2C)cs1 ... 0.28
COc1ccc(NC(C)=O)cc1Nc1nc(-c2sc(N)nc2C)cs1 ... 19
COc1ccc(-c2c(C)noc2C)cc1Nc1nc(-c2sc(C)nc2C)cs1 ... 31

For the compound CCOC(=O)c1ccc(OCC)c(Nc2nc(-c3sc(NC(C)=O)nc3C)cs2)c1 , what Kd is on record? 3.9
